- Tested on: HCV genotype 3a S138T variant transient replicon
- assay.method.text: genotype 3a S138T transient replicon assay
- Assay type: cell-based, hepatitis C virus (HCV)
- assay.conditions: Hepatitis C virus
Reported EC50 values for a set of compounds

Below, each entry is followed by its recorded EC50 result.
1. CC[C@@H]1C[C@]1(NC(=O)[C@@H]1C[C@@H]2CN1C(=O)[C@H](C(C)(C)C)NC(=O)O[C@@H]1CCC[C@H]1OC/C=C/C(F)(F)c1nc3ccccc3nc1O2)C(=O)NS(=O)(=O)C1(C)CC1 [Example 8]
100 to 1000 nM
2. C=C[C@@H]1C[C@]1(NC(=O)[C@@H]1C[C@@H]2CN1C(=O)[C@H](C(C)(C)C)NC(=O)O[C@@H]1CCC[C@H]1OC/C=C/C(F)(F)c1nc3ccccc3nc1O2)C(=O)NS(=O)(=O)C1CC1 [Example 1]
100 to 1000 nM
3. CC[C@@H]1C[C@]1(NC(=O)[C@@H]1C[C@@H]2CN1C(=O)[C@H](C(C)(C)C)NC(=O)O[C@@H]1CCC[C@H]1OC/C=C/C(F)(F)c1nc3ccccc3nc1O2)C(=O)NS(=O)(=O)C1CC1 [Example 4]
100 to 1000 nM
4. CC(C)(C)[C@@H]1NC(=O)O[C@@H]2CCC[C@H]2OC/C=C/C(F)(F)c2nc3ccccc3nc2O[C@@H]2C[C@@H](C(=O)N[C@]3(C(=O)NS(=O)(=O)C4(C)CC4)C[C@H]3C(F)F)N(C2)C1=O [Example 6]
< 100 nM

Now consider a different compound.
Bench note: what EC50 did CC(C)(C)[C@@H]1NC(=O)O[C@@H]2CCC[C@H]2OC/C=C/C(F)(F)c2nc3ccccc3nc2O[C@@H]2C[C@@H](C(=O)N[C@]3(C(=O)NS(=O)(=O)C4CC4)C[C@H]3C(F)F)N(C2)C1=O [Example 2] show?
100 to 1000 nM

* * *

- System: HCV genotype 1a wild-type transient replicon
- assay.method.text: genotype 1a wild-type transient replicon assay
- Format: cell-based, hepatitis C virus (HCV)
- assay.conditions: Hepatitis C virus
endpoint: EC50

Below, each entry is followed by its recorded EC50 result.
1) CC(C)(C)[C@@H]1NC(=O)O[C@@H]2CCC[C@H]2OC/C=C/C(F)(F)c2nc3ccccc3nc2O[C@@H]2C[C@@H](C(=O)N[C@]3(C(=O)NS(=O)(=O)C4CC4)C[C@H]3C(F)F)N(C2)C1=O
0.1 to 1 nM
2) CC[C@@H]1C[C@]1(NC(=O)[C@@H]1C[C@@H]2CN1C(=O)[C@H](C(C)(C)C)NC(=O)O[C@@H]1CCC[C@H]1OC/C=C/C(F)(F)c1nc3ccccc3nc1O2)C(=O)NS(=O)(=O)C1(C)CC1
0.1 to 1 nM
3) CC[C@@H]1C[C@]1(NC(=O)[C@@H]1C[C@@H]2CN1C(=O)[C@H](C(C)(C)C)NC(=O)O[C@@H]1CCC[C@H]1OC/C=C/C(F)(F)c1nc3ccccc3nc1O2)C(=O)NS(=O)(=O)C1CC1
0.1 to 1 nM
4) C=C[C@@H]1C[C@]1(NC(=O)[C@@H]1C[C@@H]2CN1C(=O)[C@H](C(C)(C)C)NC(=O)O[C@@H]1CCC[C@H]1OC/C=C/C(F)(F)c1nc3ccccc3nc1O2)C(=O)NS(=O)(=O)C1CC1
0.1 to 1 nM
5) C=C[C@@H]1C[C@]1(NC(=O)[C@@H]1C[C@@H]2CN1C(=O)[C@H](C(C)(C)C)NC(=O)O[C@@H]1CCC[C@H]1OC/C=C/C(F)(F)c1nc3ccccc3nc1O2)C(=O)NS(=O)(=O)C1(C)CC1
< 0.1 nM

Now consider a different molecule.
Bench note: what EC50 did `CC(C)(C)[C@@H]1NC(=O)O[C@@H]2CCC[C@H]2OC/C=C/C(F)(F)c2nc3ccccc3nc2O[C@@H]2C[C@@H](C(=O)N[C@]3(C(=O)NS(=O)(=O)C4(C)CC4)C[C@H]3C(F)F)N(C2)C1=O` show?
< 0.1 nM

* * *

Reported pEC50 values for a set of compounds
- System: HCV genotype 1a (1a-H77) stable subgenomic replicon
- assay.method.text: genotype 1a Huh-7 stable replicon assay (luciferase reporter)
- Format: cell-based, hepatitis C virus (HCV)
- assay.conditions: Hepatitis C virus, 5% FBS
pEC50: −log10 of the molar value.

Below, each entry is followed by its recorded pEC50 result.
1. CC[C@@H]1C[C@]1(NC(=O)[C@@H]1C[C@@H]2CN1C(=O)[C@H](C(C)(C)C)NC(=O)O[C@@H]1CCC[C@H]1OC/C=C/C(F)(F)c1nc3ccccc3nc1O2)C(=O)NS(=O)(=O)C1(C)CC1
> 9.00
2. CC[C@@H]1C[C@]1(NC(=O)[C@@H]1C[C@@H]2CN1C(=O)[C@H](C(C)(C)C)NC(=O)O[C@@H]1CCC[C@H]1OC/C=C/C(F)(F)c1nc3ccccc3nc1O2)C(=O)NS(=O)(=O)C1CC1
> 9.00

Bench note: what pEC50 did `C=C[C@@H]1C[C@]1(NC(=O)[C@@H]1C[C@@H]2CN1C(=O)[C@H](C(C)(C)C)NC(=O)O[C@@H]1CCC[C@H]1OC/C=C/C(F)(F)c1nc3ccccc3nc1O2)C(=O)NS(=O)(=O)C1CC1` show?
> 9.00

Bench note: what pEC50 did `CC(C)(C)[C@@H]1NC(=O)O[C@@H]2CCC[C@H]2OC/C=C/C(F)(F)c2nc3ccccc3nc2O[C@@H]2C[C@@H](C(=O)N[C@]3(C(=O)NS(=O)(=O)C4CC4)C[C@H]3C(F)F)N(C2)C1=O` show?
8.00 to 9.00
